Kindly state pIC50 for each of the entries shown.
Molecular target: NaV1.5 (Homo sapiens (Human))
Sequence (Q14524 whole entry): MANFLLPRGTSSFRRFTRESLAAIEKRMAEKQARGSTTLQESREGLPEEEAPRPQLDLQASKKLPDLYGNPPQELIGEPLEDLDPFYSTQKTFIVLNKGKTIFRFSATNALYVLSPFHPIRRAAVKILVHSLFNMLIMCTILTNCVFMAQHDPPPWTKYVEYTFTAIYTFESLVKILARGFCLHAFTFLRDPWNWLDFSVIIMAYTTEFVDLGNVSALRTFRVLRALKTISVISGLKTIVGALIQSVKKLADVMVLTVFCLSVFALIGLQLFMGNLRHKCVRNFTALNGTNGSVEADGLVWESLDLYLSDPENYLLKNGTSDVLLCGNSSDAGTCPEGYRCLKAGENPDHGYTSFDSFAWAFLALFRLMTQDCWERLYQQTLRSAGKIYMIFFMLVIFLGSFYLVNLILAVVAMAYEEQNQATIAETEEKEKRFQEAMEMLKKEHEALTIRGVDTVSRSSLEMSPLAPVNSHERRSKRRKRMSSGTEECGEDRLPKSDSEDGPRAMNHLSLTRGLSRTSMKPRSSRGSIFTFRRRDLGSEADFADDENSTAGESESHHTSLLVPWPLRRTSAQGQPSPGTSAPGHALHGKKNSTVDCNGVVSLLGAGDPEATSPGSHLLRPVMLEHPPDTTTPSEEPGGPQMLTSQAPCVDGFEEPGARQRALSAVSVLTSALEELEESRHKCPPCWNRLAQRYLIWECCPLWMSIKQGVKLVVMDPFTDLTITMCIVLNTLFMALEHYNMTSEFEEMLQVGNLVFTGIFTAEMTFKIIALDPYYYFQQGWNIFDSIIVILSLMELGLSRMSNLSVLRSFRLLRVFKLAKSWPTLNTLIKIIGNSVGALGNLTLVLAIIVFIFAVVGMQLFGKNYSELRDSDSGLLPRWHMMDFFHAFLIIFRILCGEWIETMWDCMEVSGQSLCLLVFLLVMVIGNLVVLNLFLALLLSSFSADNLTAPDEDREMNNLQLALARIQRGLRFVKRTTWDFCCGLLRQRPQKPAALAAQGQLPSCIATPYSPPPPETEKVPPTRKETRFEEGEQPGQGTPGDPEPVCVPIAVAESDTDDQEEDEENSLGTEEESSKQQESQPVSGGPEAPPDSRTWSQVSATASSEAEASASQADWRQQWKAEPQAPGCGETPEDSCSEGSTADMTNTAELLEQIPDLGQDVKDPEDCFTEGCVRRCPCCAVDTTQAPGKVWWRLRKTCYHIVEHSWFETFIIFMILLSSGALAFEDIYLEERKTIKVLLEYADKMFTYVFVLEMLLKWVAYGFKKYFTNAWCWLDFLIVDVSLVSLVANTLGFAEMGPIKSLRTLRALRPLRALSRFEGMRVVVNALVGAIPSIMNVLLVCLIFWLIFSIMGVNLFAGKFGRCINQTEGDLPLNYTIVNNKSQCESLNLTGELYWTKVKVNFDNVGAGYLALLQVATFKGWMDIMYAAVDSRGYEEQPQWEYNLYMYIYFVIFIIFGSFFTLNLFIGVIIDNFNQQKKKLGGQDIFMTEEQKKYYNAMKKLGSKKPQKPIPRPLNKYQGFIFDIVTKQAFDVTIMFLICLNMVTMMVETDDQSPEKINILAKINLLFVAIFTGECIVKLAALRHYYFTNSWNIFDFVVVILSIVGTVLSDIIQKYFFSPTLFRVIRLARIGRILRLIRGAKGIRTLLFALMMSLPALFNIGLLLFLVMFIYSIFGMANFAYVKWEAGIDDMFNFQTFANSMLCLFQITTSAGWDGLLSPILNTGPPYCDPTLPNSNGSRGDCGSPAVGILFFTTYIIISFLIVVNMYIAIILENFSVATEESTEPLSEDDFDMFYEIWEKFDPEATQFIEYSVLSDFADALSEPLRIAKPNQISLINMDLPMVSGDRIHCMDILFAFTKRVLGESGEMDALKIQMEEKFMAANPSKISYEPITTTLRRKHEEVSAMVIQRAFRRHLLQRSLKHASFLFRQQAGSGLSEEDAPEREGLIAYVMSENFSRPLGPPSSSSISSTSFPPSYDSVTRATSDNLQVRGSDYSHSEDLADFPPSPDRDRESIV
Experiment: Patch voltage clamp electrophysiological assay (EP), NaV1.5
Settings: read-out: NaV1.5 EP; HEK-293 cells stably expressing human NaV1.5 with β1 subunit, whole-cell patch clamp, holding −60 mV
Counter-ions that a name gives are not always drawn.
pIC50 here: minus log base 10 of the concentration, concentration in moles per litre.

Request: Can you share its pIC50? I mean this compound: CS(=O)(=O)NC(=O)c1cc(C2CC2)c(OCC2(F)CCN(Cc3cc(C(F)(F)F)cc(Cl)c3F)CC2)cc1F [Example 346, trifluoroacetic acid salt]
Result: 3.17

Request: Can you share its pIC50? I mean this compound: C[C@H](c1ccc(Cl)c(C2CC2)n1)N1CCC[C@@H](Oc2cc(F)c(C(=O)NS(C)(=O)=O)cc2C2CC2)C1 (single isomer, unassigned)
Result: 6.42

Request: Can you share its pIC50? I mean this compound: CCS(=O)(=O)NC(=O)c1cc(C2CC2)c(OCC2CCN([C@@H](c3cc(Cl)cc(Cl)c3)C(C)(C)OC)CC2)cc1F (single isomer, unassigned)
Result: 7.89

The reported numbers originate from patent US9546164B2.
